# MEASUREMENT_TARGET: jack bean urease (Canavalia ensiformis, UniProt P07374)
# Sequence (P07374 whole entry, looked up): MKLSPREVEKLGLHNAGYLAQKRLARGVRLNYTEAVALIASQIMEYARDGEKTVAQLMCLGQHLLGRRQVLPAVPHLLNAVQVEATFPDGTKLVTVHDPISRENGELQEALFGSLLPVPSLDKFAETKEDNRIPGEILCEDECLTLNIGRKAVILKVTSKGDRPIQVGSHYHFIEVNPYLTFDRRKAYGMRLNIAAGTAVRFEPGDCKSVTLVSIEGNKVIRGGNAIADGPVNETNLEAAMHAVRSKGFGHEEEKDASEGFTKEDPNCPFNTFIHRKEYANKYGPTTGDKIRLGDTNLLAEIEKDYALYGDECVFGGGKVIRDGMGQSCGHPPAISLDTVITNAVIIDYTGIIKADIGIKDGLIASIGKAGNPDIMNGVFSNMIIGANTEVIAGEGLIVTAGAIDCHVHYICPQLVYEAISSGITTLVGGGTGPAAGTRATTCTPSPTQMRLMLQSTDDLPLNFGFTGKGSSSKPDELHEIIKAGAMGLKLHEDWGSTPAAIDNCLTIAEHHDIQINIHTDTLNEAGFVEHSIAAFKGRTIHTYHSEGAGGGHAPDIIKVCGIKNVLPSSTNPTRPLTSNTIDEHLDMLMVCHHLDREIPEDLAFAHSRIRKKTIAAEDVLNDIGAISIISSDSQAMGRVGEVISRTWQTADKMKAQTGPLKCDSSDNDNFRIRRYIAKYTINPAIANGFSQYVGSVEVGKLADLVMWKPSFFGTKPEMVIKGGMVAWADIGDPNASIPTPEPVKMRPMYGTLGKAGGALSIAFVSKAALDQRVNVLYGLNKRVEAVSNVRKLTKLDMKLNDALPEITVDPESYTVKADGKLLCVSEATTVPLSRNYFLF
# TEST_SUMMARY: Urease inhibition assay
# Type: biochemical
# CONDITION_SET: Enzyme (SEM ±) J.B Urease, IC50, mean ± SEM, 3 experiments
ATTRIBUTE_MEASURED: IC50 (µM)

Examples with answers:
| STRUCTURE_AS_SMILES | IC50, µM |
| --- | --- |
| C=CCN(c1nccs1)S(=O)(=O)c1ccc(OC)cc1 | 24.1 |
| O=S(=O)(c1ccc(F)cc1)N(Cc1ccccc1)c1nccs1 | 32.1 |
| COc1ccc(S(=O)(=O)N(Cc2ccccc2)c2nccs2)cc1 | 20.6 |

1. O=[N+]([O-])c1ccc(S(=O)(=O)N(Cc2ccccc2)c2nccs2)cc1
2. O=S(=O)(c1ccccc1)N(Cc1ccccc1)c1nccs1
QUERY: Please indicate which has the smaller reported IC50: 1 , or 2 . Choose, then provide that item's label.
RESULT: 2

* * *

# MEASUREMENT_TARGET: jack bean urease (Canavalia ensiformis, UniProt P07374)
# TEST_SUMMARY: Urease inhibition assay
# Format: biochemical
ATTRIBUTE_MEASURED: Types of inhibition (urease)

Examples with answers:
| STRUCTURE_AS_SMILES | Types of inhibition (urease) |
| --- | --- |
| O=S(=O)(c1ccc(Br)cc1)N(Cc1ccccc1)c1nccs1 | Non-competitive |
| O=S(=O)(c1ccc(F)cc1)N(Cc1ccccc1)c1nccs1 | Competitive |
| O=S(=O)(c1ccccc1)N(Cc1ccccc1)c1nccs1 | Competitive |
| CN(c1nccs1)S(=O)(=O)c1ccc(Br)cc1 | Competitive |
| C=CCN(c1nccs1)S(=O)(=O)c1ccccc1 | Non-competitive |

QUERY: Please list Types of inhibition (urease) recorded for the compound CN(c1nccs1)S(=O)(=O)c1ccccc1
RESULT: Competitive

QUERY: Please list Types of inhibition (urease) recorded for the compound O=S(=O)(c1ccc(Cl)cc1)N(Cc1ccccc1)c1nccs1
RESULT: Non-competitive

QUERY: Please list Types of inhibition (urease) recorded for the compound C=CCN(c1nccs1)S(=O)(=O)c1ccc(Cl)cc1
RESULT: Non-competitive

QUERY: Please list Types of inhibition (urease) recorded for the compound CN(c1nccs1)S(=O)(=O)c1ccc(Cl)cc1
RESULT: Competitive

QUERY: Please list Types of inhibition (urease) recorded for the compound Cc1ccc(S(=O)(=O)N(C)c2nccs2)cc1
RESULT: Non-competitive

* * *

Entries and their superoxide anion % scavenging
# TEST_SUMMARY: Superoxide anion scavenging assay
# CONDITION_SET: 25 μM
Form entry: value (%) — number only.

Examples with answers:
| STRUCTURE_AS_SMILES | superoxide anion % scavenging (%) |
| --- | --- |
| O=S(=O)(c1ccc(F)cc1)N(Cc1ccccc1)c1nccs1 | 33 |
| C=CCN(c1nccs1)S(=O)(=O)c1ccc(Br)cc1 | 25 |
| CN(c1nccs1)S(=O)(=O)c1ccccc1 | 20.6 |

QUERY: Please list superoxide anion % scavenging recorded for the molecule C=CCN(c1nccs1)S(=O)(=O)c1ccc(Cl)cc1
RESULT: 29

QUERY: Please list superoxide anion % scavenging recorded for the molecule CN(c1nccs1)S(=O)(=O)c1ccc(F)cc1
RESULT: 31.5

* * *

# TEST_SUMMARY: ABTS method
# CONDITION_SET: 40 μM
Entries and their ABTS % Scavenging
Form entry: value (%) — number only.

Examples with answers:
| STRUCTURE_AS_SMILES | ATTRIBUTE_MEASURED | ENDPOINT_VALUE |
| --- | --- | --- |
| C=CCN(c1nccs1)S(=O)(=O)c1ccc(Cl)cc1 | ABTS % Scavenging | 59.5 |
| C=CCN(c1nccs1)S(=O)(=O)c1ccccc1 | ABTS % Scavenging | 74.12 |
| C=CCN(c1nccs1)S(=O)(=O)c1ccc(OC)cc1 | ABTS % Scavenging | 70.02 |
| CN(c1nccs1)S(=O)(=O)c1ccc(F)cc1 | ABTS % Scavenging | 48.13 |

QUERY: Please list ABTS % Scavenging recorded for the molecule O=S(=O)(c1ccccc1)N(Cc1ccccc1)c1nccs1
RESULT: 66.11

QUERY: Please list ABTS % Scavenging recorded for the molecule O=S(=O)(c1ccc(Br)cc1)N(Cc1ccccc1)c1nccs1
RESULT: 72.05

QUERY: Please list ABTS % Scavenging recorded for the molecule O=S(=O)(c1ccc(Cl)cc1)N(Cc1ccccc1)c1nccs1
RESULT: 76.01

QUERY: Please list ABTS % Scavenging recorded for the molecule CN(c1nccs1)S(=O)(=O)c1ccccc1
RESULT: 65.5

* * *

# MEASUREMENT_TARGET: Bacillus Pasteurii urease (Sporosarcina pasteurii)
# Sequence (P41020 whole entry): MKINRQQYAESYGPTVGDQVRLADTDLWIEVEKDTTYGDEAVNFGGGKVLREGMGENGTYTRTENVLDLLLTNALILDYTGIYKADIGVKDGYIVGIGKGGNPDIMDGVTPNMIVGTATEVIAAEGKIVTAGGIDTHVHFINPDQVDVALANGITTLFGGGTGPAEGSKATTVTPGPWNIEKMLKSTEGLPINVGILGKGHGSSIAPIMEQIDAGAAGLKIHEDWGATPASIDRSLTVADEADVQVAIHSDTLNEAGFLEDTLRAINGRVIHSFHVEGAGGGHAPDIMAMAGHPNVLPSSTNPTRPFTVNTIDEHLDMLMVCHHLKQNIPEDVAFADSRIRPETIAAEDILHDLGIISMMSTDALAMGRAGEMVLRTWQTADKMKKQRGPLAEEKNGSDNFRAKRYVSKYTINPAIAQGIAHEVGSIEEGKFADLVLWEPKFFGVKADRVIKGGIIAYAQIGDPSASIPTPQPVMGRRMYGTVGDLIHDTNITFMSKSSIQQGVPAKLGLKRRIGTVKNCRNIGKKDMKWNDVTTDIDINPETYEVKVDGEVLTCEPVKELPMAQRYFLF
# Sequence (P41021 whole entry partner): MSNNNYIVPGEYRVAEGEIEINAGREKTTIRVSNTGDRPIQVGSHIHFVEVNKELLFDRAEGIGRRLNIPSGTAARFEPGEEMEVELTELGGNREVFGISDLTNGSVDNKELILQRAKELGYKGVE
# Sequence (P41022 whole entry partner): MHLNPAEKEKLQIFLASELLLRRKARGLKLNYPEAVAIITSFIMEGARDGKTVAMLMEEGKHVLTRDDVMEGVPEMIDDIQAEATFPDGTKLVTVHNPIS
# TEST_SUMMARY: Urease inhibition assay
# Assay type: biochemical
# CONDITION_SET: Enzyme (SEM ±) B.P Urease, IC50, mean ± SEM, 3 experiments
ATTRIBUTE_MEASURED: IC50 (µM)

| MOLECULE | UNIT_OF_MEASUREMENT | IC50 |
| --- | --- | --- |
| COc1ccc(S(=O)(=O)N(Cc2ccccc2)c2nccs2)cc1 [Compound 20] | µM | 22.1 |

1. COc1ccc(S(=O)(=O)N(C)c2nccs2)cc1 [Compound 34]
2. C=CCN(c1nccs1)S(=O)(=O)c1ccc([N+](=O)[O-])cc1 [Compound 32]
QUERY: Please indicate which has the smaller reported IC50: 1 , or 2 . Choose, then provide that item's label.
RESULT: 1

P. O=S(=O)(c1ccccc1)N(Cc1ccccc1)c1nccs1 [Compound 22]
Q. O=S(=O)(c1ccc(Cl)cc1)N(Cc1ccccc1)c1nccs1 [Compound 23]
R. O=S(=O)(c1ccc(F)cc1)N(Cc1ccccc1)c1nccs1 [Compound 24]
QUERY: Task for the reader: rank each entry by its IC50, from the minimum upward. Show the ranking through the labels, in the order asked for.
RESULT: P, Q, R

* * *

# TEST_SUMMARY: Superoxide anion scavenging assay
# CONDITION_SET: 50 μM
Entries and their superoxide anion % scavenging
Form entry: value (%) — number only.

| STRUCTURE_AS_SMILES | superoxide anion % scavenging (%) |
| --- | --- |
| COc1ccc(S(=O)(=O)N(Cc2ccccc2)c2nccs2)cc1 | 54 |
| C=CCN(c1nccs1)S(=O)(=O)c1ccc(C)cc1 | 63 |
| CN(c1nccs1)S(=O)(=O)c1ccc(F)cc1 | 45.01 |
| C=CCN(c1nccs1)S(=O)(=O)c1ccc(OC)cc1 | 71 |
| CN(c1nccs1)S(=O)(=O)c1ccc([N+](=O)[O-])cc1 | 48.5 |

QUERY: Please list superoxide anion % scavenging recorded for the compound O=S(=O)(c1ccccc1)N(Cc1ccccc1)c1nccs1
RESULT: 57

QUERY: Please list superoxide anion % scavenging recorded for the compound CN(c1nccs1)S(=O)(=O)c1ccccc1
RESULT: 43.6

QUERY: Please list superoxide anion % scavenging recorded for the compound C=CCN(c1nccs1)S(=O)(=O)c1ccc(Cl)cc1
RESULT: 63

QUERY: Please list superoxide anion % scavenging recorded for the compound C=CCN(c1nccs1)S(=O)(=O)c1ccc(Br)cc1
RESULT: 66

QUERY: Please list superoxide anion % scavenging recorded for the compound O=S(=O)(c1ccc(F)cc1)N(Cc1ccccc1)c1nccs1
RESULT: 45

QUERY: Please list superoxide anion % scavenging recorded for the compound Cc1ccc(S(=O)(=O)N(Cc2ccccc2)c2nccs2)cc1
RESULT: 59

QUERY: Please list superoxide anion % scavenging recorded for the compound C=CCN(c1nccs1)S(=O)(=O)c1ccccc1
RESULT: 73

QUERY: Please list superoxide anion % scavenging recorded for the compound Cc1ccc(S(=O)(=O)N(C)c2nccs2)cc1
RESULT: 51

QUERY: Please list superoxide anion % scavenging recorded for the compound C=CCN(c1nccs1)S(=O)(=O)c1ccc(F)cc1
RESULT: 46

QUERY: Please list superoxide anion % scavenging recorded for the compound COc1ccc(S(=O)(=O)N(C)c2nccs2)cc1
RESULT: 39.6

* * *

# MEASUREMENT_TARGET: jack bean urease (Canavalia ensiformis, UniProt P07374)
# TEST_SUMMARY: Urease inhibition assay
# Format: biochemical
# CONDITION_SET: Enzyme (SEM ±) J.B Urease, IC50, mean ± SEM, 3 experiments
ATTRIBUTE_MEASURED: IC50 (µM)

Examples with answers:
| STRUCTURE_AS_SMILES | UNIT_OF_MEASUREMENT | IC50 |
| --- | --- | --- |
| C=CCN(c1nccs1)S(=O)(=O)c1ccc(Cl)cc1 | µM | 28.1 |
| Cc1ccc(S(=O)(=O)N(Cc2ccccc2)c2nccs2)cc1 | µM | 26.1 |
| C=CCN(c1nccs1)S(=O)(=O)c1ccc(C)cc1 | µM | 30.1 |
| CN(c1nccs1)S(=O)(=O)c1ccc(Br)cc1 | µM | 18.7 |

A. CN(c1nccs1)S(=O)(=O)c1ccc(F)cc1
B. CN(c1nccs1)S(=O)(=O)c1ccccc1
QUERY: Please indicate which has the smaller reported IC50: A , or B . Choose, then provide that item's label.
RESULT: B
